# target or test system: Acetylcholinesterase (Homo sapiens) (UniProt P22303)
# Sequence (P22303 whole entry, looked up): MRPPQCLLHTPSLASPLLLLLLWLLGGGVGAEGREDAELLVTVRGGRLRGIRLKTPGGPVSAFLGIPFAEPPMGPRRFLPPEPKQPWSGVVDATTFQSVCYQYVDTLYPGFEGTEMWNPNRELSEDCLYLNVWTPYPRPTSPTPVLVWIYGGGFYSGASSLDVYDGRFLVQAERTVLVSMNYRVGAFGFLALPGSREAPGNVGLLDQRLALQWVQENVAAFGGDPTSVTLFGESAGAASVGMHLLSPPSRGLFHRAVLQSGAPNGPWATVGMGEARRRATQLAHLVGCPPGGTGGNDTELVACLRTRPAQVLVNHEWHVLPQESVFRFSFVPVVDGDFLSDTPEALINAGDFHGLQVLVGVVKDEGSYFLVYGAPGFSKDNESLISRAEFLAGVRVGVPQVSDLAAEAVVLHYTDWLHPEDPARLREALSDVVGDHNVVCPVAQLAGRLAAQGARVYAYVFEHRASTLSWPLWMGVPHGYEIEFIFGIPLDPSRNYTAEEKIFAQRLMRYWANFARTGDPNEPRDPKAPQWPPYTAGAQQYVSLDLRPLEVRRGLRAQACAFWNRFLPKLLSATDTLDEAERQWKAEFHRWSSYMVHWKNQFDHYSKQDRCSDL
# test name: Acetylcholinesterase (AChE) small molecule antagonists: fluorescence cell-based qHTS assay (AID 1347398); also: nearly all actives have a fitted effect of over 50% in size
# test settings: SH-SY5Y cells; AChE activity; series mostly up to 115 µM
Inconclusive results are not listed. Activity calls are given as the source filed them. Calls follow the shape of the full dose curve.
Use one of these outcomes when replying: Y for active, N for inactive

Some entries whose results are on file:
CC(=O)S[C@H](C(=O)N[C@H]1Cc2ccccc2[C@H]2CCC[C@@H](C(=O)O)N2C1=O)C(C)C ... N
NC(=O)c1ccccc1[N+](=O)[O-] ... N
O=C1CCCCCCCCCCCCCCCO1 ... N
C=CC(C)(O)CC/C=C(\C)CCC=C(C)C (stereo not given) ... N
COc1ccc2[nH]c(S(=O)Cc3ncc(C)c(OC)c3C)nc2n1 (stereo not given) ... N

Write down the call the test reported for this compound. Item: CC(C)C(OC(=O)c1ccccc1)C(C)(C)COC(=O)c1ccccc1 (stereo not given)
N

Write down the call the test reported for this compound. Item: O=C(O)CO
N

Write down the call the test reported for this compound. Item: CC(=C(CCOC(=O)C(C)C)SSC(CCOC(=O)C(C)C)=C(C)N(C=O)Cc1cnc(C)nc1N)N(C=O)Cc1cnc(C)nc1N
N

Write down the call the test reported for this compound. Item: N#CCc1cccc(C(F)(F)F)c1
N

Write down the call the test reported for this compound. Item: CCCN1C[C@H](CSC)C[C@@H]2c3cccc4[nH]cc(c34)C[C@H]21
Y

Write down the call the test reported for this compound. Item: C=C(C)C(=O)OCCCC
N

Write down the call the test reported for this compound. Item: COC(=O)[C@H]1[C@H]2C[C@@H]3c4[nH]c5cc(OC)ccc5c4CCN3C[C@H]2C[C@@H](OC(=O)COc2ccc(OC)cc2)[C@@H]1OC
N

Write down the call the test reported for this compound. Item: CC(CN=Cc1ccccc1O)N=Cc1ccccc1O (stereo not given)
N

Write down the call the test reported for this compound. Item: Clc1cc(Cl)c(Cl)nc1Cl
N

Write down the call the test reported for this compound. Item: Cc1ccccc1N=C(N)N=C(N)N
N

Write down the call the test reported for this compound. Item: C=C(C)C1CC=C(C)C(O)C1 (stereo not given)
N

Write down the call the test reported for this compound. Item: Cc1ccc2c(c1[N+](=O)[O-])C(=O)c1ccccc1C2=O
Y

Write down the call the test reported for this compound. Item: COc1ccc(-c2coc3cc(O)ccc3c2=O)cc1
N

Write down the call the test reported for this compound. Item: CCN(CC)CCNc1ccc(CNC=O)c2sc3ccc(OC)cc3c(=O)c12
Y

---

# target or test system: Acetylcholinesterase (Homo sapiens)
# test name: Acetylcholinesterase (AChE) small molecule antagonists: enzyme-based qHTS assay (AID 1347397); also: nearly all actives have a fitted effect of over 55% in size
# test settings: AChE enzyme activity inhibition; series mostly up to 115 µM
The source made the active and inactive calls. Calls come from the whole dose curve.
property label: outcome

As a guide, the following entries are already answered.
COC(C)OC ... inactive
CCOC(=O)[C@H](CCc1ccccc1)N[C@@H](C)C(=O)N1Cc2cc(OC)c(OC)cc2C[C@H]1C(=O)O ... inactive
CCOC(=O)C(C)O (stereo not drawn) ... inactive
CC(=O)OCC1=C(C(=O)O)N2C(=O)[C@@H](NC(=O)Cc3cccs3)[C@H]2SC1 ... inactive
CCCCNc1ccc(C(=O)OCCOCCOCCOCCOCCOCCOCCOCCOCCOC)cc1 ... inactive

So for COC(=O)c1ccc(NC(C)=O)cc1OC , the logged outcome turned out to be inactive

So for OCCN1CCOCC1 , the logged outcome turned out to be inactive

So for COc1cc2ncnc(Nc3ccc(F)c(Cl)c3)c2cc1OCCCN1CCOCC1 , the logged outcome turned out to be inactive

So for CO[Si](C)(OC)c1ccccc1 , the logged outcome turned out to be inactive

So for Nc1nc(CC(=O)O)cs1 , the logged outcome turned out to be inactive

So for Cc1cc(O)c(C(C)(C)C)cc1C(C)(C)C , the logged outcome turned out to be inactive

So for CC(C)=CCC/C(C)=C/C#N , the logged outcome turned out to be inactive

So for N#CC1(N)CCCCC1 , the logged outcome turned out to be inactive
